change in vivo at 30 mg/kg overview
- System: curarised rats ("sleep" induced by sodium 4-hydroxy-butyrate)
- Experimental Protocol: action on the duration of the "sleep" induced by sodium 4-hydroxy-butyrate (GHB) in curarised rats
- Assay type: in vivo, rats (male, Charles River strain)
- Settings: Rattus norvegicus, ip, 1.25 h; 30 mg/kg intraperitoneally; GHB 200 mg/kg i.v.; read-out: DIFFERENCE IN % RELATIVE TO THE CONTROLS (total duration of the "sleep")
Quantity: change in vivo at 30 mg/kg

>  <Compound>
O=C1CCC2NCCc3c2n1c1ccc(Cl)cc31 (stereo not drawn)

>  <Recorded Value>
-40%

$$$$
>  <Compound>
CC(=O)CCN1CCc2c3n(c4ccc(Cl)cc24)C(=O)CCC31 (stereo not drawn)

>  <Recorded Value>
-43%

$$$$
>  <Compound>
COC(=O)CCN1CCc2c3n(c4ccccc24)C(=O)CCC31 (stereo not drawn)

>  <Recorded Value>
-28%

$$$$
>  <Compound>
CC(O)CN1CCc2c3n(c4ccccc24)C(=O)CCC31 (single isomer, unassigned) [Compound 63 isomer A]

>  <Recorded Value>
-36%

$$$$
>  <Compound>
O=C1CCC2NCCc3c2n1c1ccc(F)cc31 (stereo not drawn)

>  <Recorded Value>
-47%

$$$$
>  <Compound>
Cc1ccc2c(c1)c1c3n2C(=O)CCC3NCC1 (stereo not drawn)

>  <Recorded Value>
-37%

$$$$

====

LD50 values by entry
- Experimental Protocol: acute toxicity, 50 percent lethal dose (LD50), graphical method
- Settings: mouse, in vivo, iv; Table III; read-out: TOXICITY intravenous

>  <Compound>
COC(=O)CCN1CCc2c3n(c4ccccc24)C(=O)CCC31 (stereo not shown) [Compound 19]

>  <LD50 / mg/kg>
103

$$$$
>  <Compound>
CC(O)CN1CCc2c3n(c4ccccc24)C(=O)CCC31 (single isomer, unassigned) [Compound 63 isomer A]

>  <LD50 / mg/kg>
75

$$$$
>  <Compound>
Cc1ccc2c(c1)c1c3n2C(=O)CCC3NCC1 (stereo not shown) [Compound 11]

>  <LD50 / mg/kg>
105

$$$$
>  <Compound>
O=C1CCC2NCCc3c2n1c1ccc(Cl)cc31 (stereo not shown) [Compound 52]

>  <LD50 / mg/kg>
110

$$$$

====

- Experimental Protocol: acute toxicity, 50 percent lethal dose (LD50), graphical method
- Type: in vivo
- Settings: mouse, in vivo, ip, mice CD 1, intraperitoneal; Table II; read-out: ACUTE TOXICITY LD50 for intraperitoneal administration
Quantity: LD50 (mg/kg)

>  <Compound>
CCOC(=O)[C@@H]1CC(=O)n2c3c(c4ccccc42)CCN(C)[C@@H]31 (relative stereo) [30 (m.s.)]

>  <Quantity>
LD50

>  <Recorded Value>
110

$$$$
>  <Compound>
CC1=CCC2c3c(c4ccccc4n31)CCN2C (centres unmarked) [Compound 9]

>  <Quantity>
LD50

>  <Recorded Value>
78

$$$$
>  <Compound>
CC(=O)CN1CCc2c3n(c4ccccc24)C(=O)CCC31 (centres unmarked) [Compound 62]

>  <Quantity>
LD50

>  <Recorded Value>
190

$$$$
>  <Compound>
CCCN1CCc2c3n(c4ccccc24)C(C)(O)CCC31 (centres unmarked) [Compound 22]

>  <Quantity>
LD50

>  <Recorded Value>
105

$$$$
>  <Compound>
O=C1CCC2NCCc3c2n1c1ccc(Cl)cc31 (centres unmarked) [Compound 52]

>  <Quantity>
LD50

>  <Recorded Value>
165

$$$$

Entry source: patent US4190657A
